Just for reference, ChEMBL document CHEMBL1212832 is where these values come from.

tested on: L6; assay: Cytotoxicity against rat L6 cells after 72 hrs by Alamar blue assay; assay type: cell-based; conditions: l6, 72 h
So I've got a bunch of compounds here, and I need their Activity values.
Answers are plain numbers, in µM.

1) C=C(C(=O)C[C@@H](C)C1=C(O)C(=O)[C@@H]2C3=C(CC[C@]12C)[C@@]1(C)CC[C@H](O[C@@H]2O[C@H](C(=O)OC)[C@@H](O)[C@H](O[C@@H]4OC[C@@H](O)[C@H](O)[C@H]4O)[C@H]2O)C[C@@H]1CC3)C(C)C [METHYL ESTER PANDAROSIDE E] = 76.9
2) CC(C)CC(=O)C[C@@H](C)C1=C(O)C(=O)[C@@H]2[C@@H]3CC[C@H]4C[C@@H](O[C@@H]5O[C@H](C(=O)O)[C@@H](O)[C@H](O)[C@H]5O)CC[C@]4(C)[C@H]3CC[C@]12C [PANDAROSIDE D] = 96.6
3) CC(C)[C@@H](C)C(=O)C[C@@H](C)C1=C(O)C(=O)[C@@H]2C3=C(CC[C@]12C)[C@@]1(C)CC[C@H](O[C@@H]2O[C@H](C(=O)O)[C@@H](O)[C@H](O[C@@H]4OC[C@@H](O)[C@H](O)[C@H]4O)[C@H]2O)C[C@@H]1CC3 [PANDAROSIDE F] = 10.8
4) COC(=O)[C@H]1O[C@@H](O[C@H]2CC[C@@]3(C)[C@@H](CC[C@H]4[C@H]5C(=O)C(O)=C([C@H](C)CC(=O)CC(C)C)[C@@]5(C)CC[C@@H]43)C2)[C@H](O)[C@@H](O)[C@@H]1O [METHYL ESTER PANDAROSIDE D] = 106

Could you now look at the following compound, please?
Given CC[C@@H](C(=O)C[C@@H](C)C1=C(O)C(=O)[C@@H]2[C@@H]3CC[C@H]4C[C@@H](O[C@@H]5O[C@H](C(=O)O)[C@@H](O)[C@H](O)[C@H]5O[C@@H]5O[C@H](CO)[C@@H](O)[C@H](O)[C@H]5O)CC[C@]4(C)[C@H]3CC[C@]12C)C(C)C [PANDAROSIDE A] , respond with its Activity.
48.9

* * *

system: L6; assay: Cytotoxicity against rat L6 cells after 72 hrs by Alamar blue assay; assay type: cell-based; details: l6, 72 h
Can you tell me Activity for the items I'm about to list?
Give bare numbers, in µM.

1. CC[C@@H](C(=O)C[C@@H](C)C1=C(O)C(=O)[C@@H]2C3=CC[C@H]4C[C@@H](O[C@@H]5O[C@H](C(=O)OC)[C@@H](O)[C@H](O[C@@H]6OC[C@@H](O)[C@H](O)[C@H]6O)[C@H]5O)CC[C@]4(C)[C@H]3CC[C@]12C)C(C)C [METHYL ESTER PANDAROSIDE G] = 0.22
2. C=C(C(=O)C[C@@H](C)C1=C(O)C(=O)[C@@H]2C3=C(CC[C@]12C)[C@@]1(C)CC[C@H](O[C@@H]2O[C@H](C(=O)O)[C@@H](O)[C@H](O[C@@H]4OC[C@@H](O)[C@H](O)[C@H]4O)[C@H]2O)C[C@@H]1CC3)C(C)C [PANDAROSIDE E] = 40.9
3. CC[C@@H](C(=O)C[C@@H](C)C1=C(O)C(=O)[C@@H]2C3=CC[C@H]4C[C@@H](O[C@@H]5O[C@H](C(=O)O)[C@@H](O)[C@H](O[C@@H]6OC[C@@H](O)[C@H](O)[C@H]6O)[C@H]5O)CC[C@]4(C)[C@H]3CC[C@]12C)C(C)C [PANDAROSIDE G] = 5.4

Give Activity for each of the items listed below.
1. COC(=O)[C@H]1O[C@@H](O[C@H]2CC[C@]3(C)C4=C(CC[C@H]3C2)[C@H]2C(=O)C(O)=C([C@H](C)CC(=O)[C@H](C)C(C)C)[C@@]2(C)CC4)[C@H](O)[C@@H](O[C@@H]2OC[C@@H](O)[C@H](O)[C@H]2O)[C@@H]1O [METHYL ESTER PANDAROSIDE F]
2. COc1cc([C@@H]2c3cc4c(cc3[C@H](O)[C@H]3COC(=O)[C@H]23)OCO4)cc(OC)c1OC

[42.1, 0.012]

* * *

tested on: Leishmania donovani; assay: Antileishmanial activity against Leishmania donovani (MHOM/ET/67/L82) amastigotes after 72 hrs; type: functional, organism-based; conditions: MHOM/ET/67/L82, 72 h
READOUT KIND: log10 IC50 (log10 of the value in µM)
// stored as log10 of IC50 expressed in µM

Reference set (5 entries):
1) COC(=O)[C@H]1O[C@@H](O[C@H]2CC[C@@]3(C)[C@@H](CC[C@H]4[C@H]5C(=O)C(O)=C([C@H](C)CC(=O)CC(C)C)[C@@]5(C)CC[C@@H]43)C2)[C@H](O[C@@H]2O[C@H](CO)[C@@H](O)[C@H](O)[C@H]2O)[C@@H](O)[C@@H]1O [METHYL ESTER PANDAROSIDE C] = 1.65
2) CC[C@@H](C(=O)C[C@@H](C)C1=C(O)C(=O)[C@@H]2C3=CC[C@H]4C[C@@H](O[C@@H]5O[C@H](C(=O)OC)[C@@H](O)[C@H](O[C@@H]6OC[C@@H](O)[C@H](O)[C@H]6O)[C@H]5O)CC[C@]4(C)[C@H]3CC[C@]12C)C(C)C [METHYL ESTER PANDAROSIDE G] = -1.29
3) CC[C@@H](C(=O)C[C@@H](C)C1=C(O)C(=O)[C@@H]2[C@@H]3CC[C@H]4C[C@@H](O[C@@H]5O[C@H](C(=O)O)[C@@H](O)[C@H](O[C@@H]6OC[C@@H](O)[C@H](O)[C@H]6O)[C@H]5O)CC[C@]4(C)[C@H]3CC[C@]12C)C(C)C [PANDAROSIDE H] = 1.67
4) COC(=O)[C@H]1O[C@@H](O[C@H]2CC[C@]3(C)C4=C(CC[C@H]3C2)[C@H]2C(=O)C(O)=C([C@H](C)CC(=O)[C@H](C)C(C)C)[C@@]2(C)CC4)[C@H](O)[C@@H](O[C@@H]2OC[C@@H](O)[C@H](O)[C@H]2O)[C@@H]1O [METHYL ESTER PANDAROSIDE F] = 1.43
5) CC[C@@H](C(=O)C[C@@H](C)C1=C(O)C(=O)[C@@H]2C3=CC[C@H]4C[C@@H](O[C@@H]5O[C@H](C(=O)O)[C@@H](O)[C@H](O[C@@H]6OC[C@@H](O)[C@H](O)[C@H]6O)[C@H]5O)CC[C@]4(C)[C@H]3CC[C@]12C)C(C)C [PANDAROSIDE G] = 0.11

Then this compound:
Give measured log10 IC50 for CC(C)[C@@H](C)C(=O)C[C@@H](C)C1=C(O)C(=O)[C@@H]2C3=C(CC[C@]12C)[C@@]1(C)CC[C@H](O[C@@H]2O[C@H](C(=O)O)[C@@H](O)[C@H](O[C@@H]4OC[C@@H](O)[C@H](O)[C@H]4O)[C@H]2O)C[C@@H]1CC3 [PANDAROSIDE F] (Leishmania donovani).
0.63
